B1: CPXM2 (parent)
chain: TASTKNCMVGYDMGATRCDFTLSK

- Variants of: B1
- method: protein stability index of a GFP-peptide fusion (GPS, HEK-293T) (PSI 1-6); higher = more stable;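 note: lentivirally expressed fusions sorted by FACS into six bins by GFP to DsRed ratio, PSI derived from sequencing read proportions per bin multiplied by bin number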
- condition_context: c terminus: a fixed tail appended
Field: class. Source value: protein stability index. Ranges: low = under 2, medium = from 2 up to 3, high = 3 and over

A15G : medium

Problem: Which bin, given its protein stability index, does A15P occupy?
Solution: medium

Problem: Please indicate the class for T4Q based on its protein stability index.
Solution: medium

Problem: The entry to classify is K24A ; which class holds it?
Solution: medium

Problem: Bin? C7T
Solution: high

Problem: Would you mind sorting D12L into the appropriate category?
Solution: low

Problem: Please indicate the class for N6S based on its protein stability index.
Solution: medium

Problem: Could you tell me which band R17G belongs to?
Solution: high

Problem: Could you tell me which band N6A belongs to?
Solution: medium

Problem: Band for the recorded protein stability index of T21F ?
Solution: medium
